# Test system: Plasmodium berghei
# measurement_notes: Luciferase/luciferin-expressing antifolate-resistant parasites were used to infect a culture of HepG2 cells that were pre-incubated with compounds. Infected hepatocytes emit light due to the luciferase reaction. Assay results are presented as the percent inhibition of light emission compared to control. […]
# Type: functional
# experimental_conditions: sporozoite, HEPG2TOX_HILL_SLOPE 11.7, 13.0, HEPG2TOX_R_SQUARED 0.881, 0.478, PBLUC_HILL_SLOPE 8.47, PBLUC_R_SQUARED 0.136, read-out: LUCIFERASE INFECTION ASSAY - IC50
measure: IC50 (µM)

structure_smiles	assayed_system	measure	readout_unit	observed_value
C=c1ccccc1=C1NN=C(Sc2cnn(-c3ccc(C(F)(F)F)cn3)c(=O)c2Cl)N1CC	Plasmodium berghei	IC50	µM	4.11

* * *

# Tested on: Plasmodium berghei
# measurement_notes: Luciferase/luciferin-expressing antifolate-resistant parasites were used to infect a culture of HepG2 cells that were pre-incubated with compounds. Infected hepatocytes emit light due to the luciferase reaction. Assay results are presented as the percent inhibition of light emission compared to control. […]
# Type: functional
# experimental_conditions: sporozoite, FFLUC_HILL_SLOPE 2.28, FFLUC_R_SQUARED 0.669, PBLUC_HILL_SLOPE 14.9, PBLUC_R_SQUARED 0.408, read-out: LUCIFERASE INFECTION ASSAY - IC50
pIC50: −log10 of the molar value.

structure_smiles	pIC50
Cc1ccc(-n2c(SCc3c(-c4ccccc4)nc4sccn34)nnc2-c2ccccc2)cc1C	5.48

* * *

# Tested on: Plasmodium berghei
# measurement_notes: Luciferase/luciferin-expressing antifolate-resistant parasites were used to infect a culture of HepG2 cells that were pre-incubated with compounds. Infected hepatocytes emit light due to the luciferase reaction. Assay results are presented as the percent inhibition of light emission compared to control. […]
# Format: functional
# experimental_conditions: sporozoite, read-out: LUCIFERASE INFECTION ASSAY - IC90
Quick reference: IC90 of the listed items.

compound	qualifier_operator	IC90 [µM]
O=C(OCc1csc(-c2ccccc2)n1)c1cc(O)c2ccccc2c1O	>	10
O=C(NC1CCCCC1)N1CCc2nc(NCc3cccc(Oc4ccccc4)c3)ncc2C1	>	7.21
Cc1cc(/C=C(\C#N)C(=O)OCC(=O)c2c(N)n(CC(C)C)c(=O)n(C)c2=O)c(C)n1CC(C)C	>	10
CCn1c(=O)n(Cc2ncc(-c3cccc(Cl)c3)o2)c2ccccc21	>	10
CCN(CC)S(=O)(=O)c1cccc(NC(=O)C23CC4CC(C2)CC(c2ccc(C)cc2)(C4)C3)c1	>	10
O=C1/C(=C/c2ccc(C(F)(F)F)cc2)CCC/C1=C\c1ccc(C(F)(F)F)cc1	=	7.87
O=C(NNC(=O)c1csc(COc2ccccc2Cl)n1)c1ccc(Cl)cc1	=	7.14
CC(=O)c1ccc(NC(=O)Cn2nc(-c3ccco3)ccc2=O)cc1	>	9.78
CC(OC(=O)c1cccc(-n2cccc2)c1)C(=O)N1CCCC1 (stereo unspecified)	=	8.03
Nc1c(C(=O)c2ccc(Cl)cc2)sc(NCc2ccco2)c1C(=O)Nc1cc(Cl)ccc1Cl	=	4.4
CCCc1ccc(-c2nc(-c3ccccc3)no2)cc1	=	0.0999
CCN1C(=O)N(CC(N)=O)C(=O)C12CCN(Cc1ccc(N(C)c3ccccc3)cc1)CC2	>	7.34
Cc1ccccc1N1CCN(C(=O)c2ccc(Cl)c(S(=O)(=O)NCc3ccccc3)c2)CC1	>	10
CC(N)c1csc(NC(=O)c2cccnc2Oc2ccccc2)n1 (stereo unspecified)	=	5.22
Clc1ccc(-c2cnc3cnc(-c4cccnc4)cn23)cc1	=	1.8
O=C(NCCCn1cnc2ccccc21)c1ccc(Oc2ccc(F)cc2)cc1	>	10
CC(=O)c1ccc(NC(=O)CCn2nnc(-c3ccc(C(C)C)cc3)n2)cc1	>	10
Cc1ccc(NC(=O)c2cnn(-c3cccc(Cl)c3)c2C(C)C)nc1	=	4.3
O=C(c1ccccc1)C(Sc1nnc(Cc2cccs2)n1CCc1ccccc1)c1ccccc1 (stereo unspecified)	>	10
CCCCc1ccc(CC(=O)NCc2ccc(Cn3cccn3)cc2)cc1	=	8.98
COc1cc(-c2cnc3cnc(-c4cccnc4)cn23)ccc1O	=	3.99

* * *

# Test system: Plasmodium berghei
# measurement_notes: Luciferase/luciferin-expressing antifolate-resistant parasites were used to infect a culture of HepG2 cells that were pre-incubated with compounds. Infected hepatocytes emit light due to the luciferase reaction. Assay results are presented as the percent inhibition of light emission compared to control. […]
# Format: functional
# experimental_conditions: sporozoite, HEPG2TOX_HILL_SLOPE 41.7, HEPG2TOX_R_SQUARED 0.689, PBLUC_HILL_SLOPE 2.08, PBLUC_R_SQUARED 0.555, read-out: LUCIFERASE INFECTION ASSAY - IC50

compound	assayed_system	readout_unit	IC50
Cc1ccc2[nH]c3c(c2c1)CCCC3NCCCN(C)C (stereo unspecified)	Plasmodium berghei	µM	4.94

* * *

# Test system: Plasmodium berghei
# measurement_notes: Luciferase/luciferin-expressing antifolate-resistant parasites were used to infect a culture of HepG2 cells that were pre-incubated with compounds. Infected hepatocytes emit light due to the luciferase reaction. Assay results are presented as the percent inhibition of light emission compared to control. […]
# Type: functional
# experimental_conditions: sporozoite, read-out: LUCIFERASE INFECTION ASSAY - IC90

molecule	IC90
COc1ccc(CN2C(=O)N(CC(C)C)C3(CCN(Cc4ccc5c(c4)CCO5)CC3)C2=O)cc1	> 6.91 µM
Cc1cccc(OCc2nnnn2-c2ccc(Br)cc2)c1	> 9.56 µM
COc1ccc(C)cc1CCNC(=O)c1cc(C2CC2)nn1-c1ccccc1	> 10 µM
Cc1nc(NC(=O)c2cn3ccccc3n2)sc1Cc1ccc2c(c1)OCO2	3.5 µM
COc1cc(OC)cc(-c2cnc3cnc(-c4cccc(OC(C)C)c4)cn23)c1	> 8.47 µM
Cc1cc(SC(C)C(=O)N(Cc2ccccc2)Cc2ccccc2)nc2ccccc12 (stereo unspecified)	> 10 µM
Cc1nnc(Sc2nc(CN3CCCCC3)nc3sc4c(c23)CCC4)s1	> 10 µM
CCCCn1nc(C(=O)Nc2cc(S(=O)(=O)N(CC)CC)ccc2N2CCOCC2)c2ccccc2c1=O	> 10 µM
O=C(Nc1nn[nH]n1)c1ccc(S(=O)(=O)N2CCCCCC2)cc1	9.99 µM
O=C(Nc1cccc(NC(=O)c2ccccc2Nc2ccccc2)c1)c1ccco1	> 10 µM
CC(C)(C)NCc1cc(Cl)ccc1OCc1ccccc1F	> 9.21 µM
CCCOc1ccc(C=C(c2nc3ccccc3s2)c2nc3ccccc3s2)c(O)c1	> 10 µM
O=C(CCN1CCN(C(c2ccccc2)c2ccccc2)CC1)NNC(=O)c1ccc(I)cc1	> 10 µM
Clc1ccc(-c2nc3ncc(Br)cc3[nH]2)cc1	3.76 µM
Cc1ccc2nc(CNc3ccccc3-c3ccccc3)cc(=O)n2c1	> 10 µM
COC(=O)c1ccc(C(=O)OC)c(N(C)S(C)(=O)=O)c1	> 11 µM
N#CC(C#N)=C/C=C(/Sc1nc(-c2ccccc2)cs1)c1ccc(Cl)cc1	> 8.13 µM
Nc1nc(C2COc3ccccc3O2)ncc1S(=O)(=O)c1ccc(Cl)cc1 (stereo unspecified)	> 8.17 µM
FC(F)Sc1ccc(Nc2ncnc3sccc23)cc1	> 10 µM
O=C(/C=C/c1cn(-c2ccccc2)nc1-c1ccncc1)c1cccc(N2CCCC2=O)c1	> 10 µM
COc1ccc(-c2ccc(-c3nc4c(c(=O)[nH]c(=O)n4CC(C)C)n3CC(C)C)o2)c([N+](=O)[O-])c1	> 10 µM
CC1CCN(C(=O)CSC(F)(F)F)CC1	> 10 µM
CCc1c(C)sc2nc(SCC(=O)Nc3cc(C)on3)n(-c3ccc(O)cc3C)c(=O)c12	8.83 µM
CC(C)(C)c1ccc(C(=O)Nc2cccc(F)c2C#N)cc1	> 11.1 µM
CCOC(=O)c1sc(N)c(C#N)c1CSc1nnc(-c2ccncc2)n1-c1ccc(CC)cc1	> 10 µM
COc1cc2c(cc1OC)C(c1ccccc1)N(C(=O)/C=C/c1ccsc1)CC2 (stereo unspecified)	> 10 µM
CC(C)c1ccc(/C=C2\CCc3c2nc2ccccc2c3C(=O)O)cc1	0.0263 µM
Cc1ccc(C2CC(c3cccs3)=NN2c2ccc(C=C(C#N)C#N)cc2)o1 (stereo unspecified)	> 10 µM
Cc1nnnn1/C(=C\c1cccc(F)c1)C(=O)NC(C)c1cc2ccccc2o1 (stereo unspecified)	4.08 µM
O=[N+]([O-])c1ccc(-c2[nH]nc(-c3ccccc3)c2-c2ccc3ccccc3n2)cc1	9.84 µM
COc1ccc(-c2c(C)nn3c(NCc4ccccn4)cc(C)nc23)cc1OC	7.49 µM
COc1cccc(-c2cc3c(cn2)nc(NCCc2cc(OC)ccc2OC)n3C)c1	0.667 µM
O=C(Nc1ccc2c(c1)OCO2)c1cnc(N2CCN(Cc3ccc(Cl)cc3)C2=O)o1	> 10 µM
O=C(Cc1ccccc1)NCC(=O)N1CCc2nc(NCc3cccc(Oc4ccccc4)c3)ncc2C1	> 6.5 µM
Cc1cc2oc(=O)cc(COC(=O)c3cccc(S(=O)(=O)N(Cc4ccccc4)c4cccc(C(F)(F)F)c4)c3)c2cc1C(C)C	> 10 µM
CN(Cc1c(F)cccc1Cl)C(=O)COc1ccc2[nH]c3ccccc3c(=O)c2c1	1.11 µM
Cc1cc(C(=O)C(C)OC(=O)c2ccc(S(C)(=O)=O)c([N+](=O)[O-])c2)c(C)n1-c1ccc(Cl)cc1 (stereo unspecified)	> 10 µM
Fc1ccc(COc2ccccc2CNCc2cccnc2)cc1	> 10.2 µM
Cn1nc(-c2ccccc2)c(/C=N/O)c1Sc1ccc(C(C)(C)C)cc1	> 9.03 µM
c1ccc(-c2cc3c(N4CCC(c5ncc[nH]5)CC4)ncnc3s2)cc1	3.94 µM
Cc1ccc2nc(NC(=O)c3ccc(Cl)cc3)c(C(=O)NC3CCCC3)n2c1	3.09 µM

Hey, just so you know, these numbers are from ChEMBL document CHEMBL4483862.
